# TARGET_SYSTEM: 3-hydroxy-3-methylglutaryl-coenzyme A reductase (Mesocricetus auratus)
# PROTOCOL_NOTES: Inhibition of Syrian hamster HMGR
OBSERVATION_TYPE: IC50
The number alone won't do; follow it with the unit.

In plain terms, H-GLPEGG-OH has a documented IC50 of 27.2 µM

In plain terms, H-GFPEGG-OH has a documented IC50 of 1.7 µM

In plain terms, H-GFPDGG-OH has a documented IC50 of 1.5 µM

In plain terms, H-GFPTGG-OH has a documented IC50 of 16.9 µM

In plain terms, H-GLPDGG-OH has a documented IC50 of 22.3 µM

In plain terms, H-GLPTGG-OH has a documented IC50 of 19.4 µM

In plain terms, H-IAVPGEVA-OH has a documented IC50 of 152 µM

###

# TARGET_SYSTEM: 3-hydroxy-3-methylglutaryl-coenzyme A reductase (Mesocricetus auratus, UniProt P09610)
# Sequence (P09610 whole entry): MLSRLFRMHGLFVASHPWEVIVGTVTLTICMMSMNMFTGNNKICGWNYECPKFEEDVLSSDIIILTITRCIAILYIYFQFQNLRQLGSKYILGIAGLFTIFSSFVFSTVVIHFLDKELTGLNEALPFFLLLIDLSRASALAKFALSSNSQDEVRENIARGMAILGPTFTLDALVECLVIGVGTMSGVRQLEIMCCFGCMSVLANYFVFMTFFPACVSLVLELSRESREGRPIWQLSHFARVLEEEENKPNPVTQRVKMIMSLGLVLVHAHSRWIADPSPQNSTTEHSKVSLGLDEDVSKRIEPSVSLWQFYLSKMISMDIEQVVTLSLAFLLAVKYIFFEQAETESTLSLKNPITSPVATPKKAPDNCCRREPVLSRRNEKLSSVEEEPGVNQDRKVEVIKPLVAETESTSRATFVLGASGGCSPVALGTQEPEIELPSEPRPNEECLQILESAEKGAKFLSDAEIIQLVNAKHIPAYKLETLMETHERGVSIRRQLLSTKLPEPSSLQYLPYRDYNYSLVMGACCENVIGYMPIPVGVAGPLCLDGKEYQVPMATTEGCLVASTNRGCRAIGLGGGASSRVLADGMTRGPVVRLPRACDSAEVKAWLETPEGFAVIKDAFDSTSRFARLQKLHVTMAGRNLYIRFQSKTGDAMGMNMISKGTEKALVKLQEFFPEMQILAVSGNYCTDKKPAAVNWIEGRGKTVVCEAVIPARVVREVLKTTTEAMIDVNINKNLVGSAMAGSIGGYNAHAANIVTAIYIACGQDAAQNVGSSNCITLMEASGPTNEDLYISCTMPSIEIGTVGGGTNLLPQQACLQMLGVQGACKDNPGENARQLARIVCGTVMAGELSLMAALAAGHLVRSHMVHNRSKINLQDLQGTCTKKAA
Non-standard residues stand in square brackets, D forms with d. Residues, ends and D or L forms follow the SMILES beside them. Phe(4-F) = N[C@@H](Cc1ccc(F)cc1)C(=O)O
OBSERVATION_TYPE: IC50

{"columns": ["MOLECULE", "MEASUREMENT"],
 "data": [
  ["CC(C)C[C@H](N)C(=O)N1CCC[C@H]1C(=O)N[C@@H](Cc1ccc(O)cc1)C(=O)N1CCC[C@H]1C(=O)O (H-LPYP-OH)", "485 µM"],
  ["CC(C)[C@H](NC(=O)[C@H](C)NC(=O)[C@@H](N)Cc1ccc(O)cc1)C(=O)N[C@@H](CCC(=O)O)C(=O)O (H-YAVE-OH)", "52.6 µM"],
  ["CC(C)[C@H](NC(=O)[C@@H](N)Cc1ccc(O)cc1)C(=O)N[C@@H](C)C(=O)N[C@@H](CCC(=O)O)C(=O)O (H-YVAE-OH)", "41.8 µM"],
  ["CC[C@H](C)[C@H](N)C(=O)N[C@@H](C)C(=O)N[C@H](C(=O)N1CCC[C@H]1C(=O)O)C(C)C (H-IAVP-OH)", "97.1 µM"],
  ["CC[C@H](C)[C@H](N)C(=O)N[C@@H](C)C(=O)N[C@H](C(=O)N[C@@H](CCC(=O)O)C(=O)O)C(C)C (H-IAVE-OH)", "75.2 µM"],
  ["CC(C)[C@H](NC(=O)[C@@H](N)Cc1ccccc1)C(=O)N[C@@H](C)C(=O)N[C@@H](CCC(=O)O)C(=O)O (H-FVAE-OH)", "43.8 µM"],
  ["CC(C)[C@H](NC(=O)[C@@H](N)Cc1ccc(F)cc1)C(=O)N[C@@H](C)C(=O)N[C@@H](CCC(=O)O)C(=O)O (H-[Phe(4-F)]VAE-OH)", "3.8 µM"]
]}

In plain terms, CC[C@H](C)[C@H](N)C(=O)N[C@H](C(=O)N[C@@H](C)C(=O)N[C@@H](CCC(=O)O)C(=O)O)C(C)C (H-IVAE-OH) has a documented IC50 of 44.1 µM
